test system: SNB-19; assay: NCI tumour cell line growth inhibition, 48 h
Calls of active or inactive are those of the source. Cut-off read from the data, not from the text of the source: active = GI50 up to about 1.1 µM and inactive = higher.
Classes used: active, inactive

molecule | label
N#CCCN(CCC#N)c1ccc(/C=C2\N=C(c3cc([N+](=O)[O-])ccc3Cl)N(NC(=O)CC(=O)Nc3ccccc3Cl)C2=O)cc1 | inactive
Cn1c(=O)oc2cc(Br)ccc21 | inactive
Cc1ccc(SCC(OCn2cnc3c(N)ncnc32)[C@H](C)F)cc1 (stereo partly specified) | inactive
O=C(Cn1c(=O)oc2ccc(C(=O)c3ccc(F)cc3)cc21)c1ccccc1 | inactive
Oc1ccc(/C=C\c2nnc(/C=C\c3ccc(O)c(O)c3)s2)cc1O | inactive
CN(C)c1ccc(/C=C(\NC(=O)c2ccccc2)C(=O)NC(Cc2c[nH]c3ccccc23)C(=O)O)cc1 (stereo unspecified) | inactive
O=C(Cc1nc2ccccc2s1)C(=O)Nc1cccc(Cl)c1 | inactive
CC(CNC(N)=O)NC(N)=O (stereo unspecified) | inactive
Cc1nc(Nc2nnc(-c3cc([N+](=O)[O-])cc([N+](=O)[O-])c3C)o2)sc1C(=O)CC(=O)Cc1nc2ccc(Cl)cc2nc1O | inactive
CCOC(=O)N/N=C(/N)c1cccc([N+](=O)[O-])c1 | inactive
CCS(=O)(=O)c1c2cc(OC)ccc2nc2ccc(OC)cc12 | inactive
CCOCC(=O)N(C)c1cccc2c3c(n(C)c12)CCCCC3 | inactive
Cn1nnc2c3c(N(CCO)CCO)ccnc3ccc21 | inactive
Clc1ccc(OCC2NC3C=CC32)cn1 (stereo unspecified) | inactive
CCN(CC)c1ccc2cc(-c3csc(-c4ccc(N(C)C)cc4)n3)c(=O)oc2c1 | inactive
COc1nc(SC)nc2c1C(O)n1c(nc3ccccc31)S2 (stereo unspecified) | inactive
NNS(=O)(=O)c1cc(C(=O)O)cc(C(=O)O)c1 | inactive
COc1cc([N+](=O)[O-])c(S(=O)(=O)O)cc1-n1nc(C(=O)Nc2ccccc2)n[n+]1-c1cc(S(=O)(=O)[O-])c([N+](=O)[O-])cc1OC | inactive
CC(C)NCCCC(C)Nc1ccnc2ccc3nn(C)nc3c12 (stereo unspecified) | inactive
CC[C@@]1(OC(=O)C(N)CCC(=O)O)C(=O)OCc2c1cc1n(c2=O)Cc2cc3ccccc3nc2-1 (stereo partly specified) | active
c1ccc(CCCNc2nnnc3ccccc23)cc1 | inactive

----------
test system: KM12; experiment: NCI tumour cell line growth inhibition, 48 h
Active and inactive are the calls of the source. Cut-off read from the data, not from the text of the source: active = GI50 up to about 1.1 µM and inactive = higher.
GI50 listing for selected molecules.
property-measured: GI50

molecule | assay-value
CCCCCCCC(=O)OCC1OC(n2cc(F)c(=O)[nH]c2=O)C(NC(=O)OCc2ccccc2)C(O)C1O (stereo not given) | 32.4 µM (inactive)
N=C(N)Nc1nc2cc([N+](=O)[O-])ccc2[nH]1 | 37.3 µM (inactive)
O=C1C(c2ccccc2)=C(O)c2cccc3cccc1c23 | > 100 µM (inactive)
CC(=O)OC1=C(CC(C)(C)C)C(=O)c2ccccc2C1=O | 32.2 µM (inactive)
CC(CNC(N)=O)NC(N)=O (stereo not given) | > 100 µM (inactive)
Cc1nc(Nc2nnc(-c3cc([N+](=O)[O-])cc([N+](=O)[O-])c3C)o2)sc1C(=O)CC(=O)Cc1nc2ccc(Cl)cc2nc1O | > 100 µM (inactive)
C(#C[C@@]12CCC[C@@H]1N(Cc1ccccc1)CO2)c1ccc2c(c1)OCO2 | > 100 µM (inactive)
COc1cccc(C2CC(C)(O)Oc3cc4c(cc32)OCO4)c1O (stereo not given) | 12.5 µM (inactive)
O=C1CC(NCc2ccccc2)c2c(Cl)sc(Cl)c21 (stereo not given) | 29.9 µM (inactive)
O=C(Cc1ccc(Cl)c(Cl)c1)NCC1(N2CCCCC2)CCCCC1 | 50.7 µM (inactive)

Reference for the values: ChEMBL document CHEMBL1201862
